From: paper PMC7884711

Recorded Max OD (%) (Figure 3f) for the following substances
System: E. coli DH5α cells
Experiment: Inhibition of bacterial cell growth by CPPs (Max OD600 relative to control)
Format: cell-based, Escherichia coli
Conditions: E. coli DH5α diluted 1/1000 in LB, 5 μg TAMRA-CPP (0.1 μg/μL), OD600 monitored 18 h; max OD of treated cells / max OD of control cells; replicate 3
Where no end group is shown, it is not given here.
readout.name: Max OD (%) (Figure 3f)

• Rev(34-50) (TRQARRNRRRRWRERQR; also: TAMRA label, site not given here) [CPP 15, TAMRA-labeled CPP of the 98-CPP library, one of five used to evaluate delivery methods] = 79.5657
• TatsMTS (TMG) (GRKKRRQRRRMVSAL; also: TAMRA label, site not given here) [CPP 71, TAMRA-labeled CPP of the 98-CPP library] = 80.3758
• CTP (GGRRARRRRRR; also: TAMRA label, site not given here) [CPP 96, TAMRA-labeled CPP of the 98-CPP library] = 86.7347
